Data origin: ChEMBL document CHEMBL1139396

Test: Volume of distribution at steady state in rat at 5 mg/kg, iv
Format: ADME, organism-based
Design: dose 5 mg/kg, route intravenous
Settings: in vivo, read-out: Vdss
Each entry below carries its reported Vd.
Numbers only; they are read as L/kg.

Example entries begin here.
Smiles Input: Cc1cccc(C)c1/C=C/n1cnc2c(Nc3ccc(P(C)(C)=O)cc3)ncnc21
Vd / L/kg: 0.98
--
Smiles Input: CCCP(=O)(CCC)c1ccc(Nc2ncnc3c2ncn3/C=C/c2c(C)cccc2C)cc1
Vd / L/kg: 2.7
--
Smiles Input: Cc1cccc(Cl)c1/C=C/n1cnc2c(Nc3ccc(P(C)(C)=O)cc3)ncnc21
Vd / L/kg: 2.74
--
Smiles Input: Cc1cccc(C)c1/C=C/n1cnc2c(Nc3ccc(P(C)(C)=O)cc3)nc(C(C)C)nc21
Vd / L/kg: 5.4

Query block: // returns reported Vd for input Cc1ccc2[nH]ncc2c1/C=C/n1cnc2c(Nc3ccc(P(C)(C)=O)cc3)ncnc21
Result block: 1.9
